B1: 3'-5' exoribonuclease 1, residues 65 to 114; numbered along this chain, Q8IV48 (parent)
chain: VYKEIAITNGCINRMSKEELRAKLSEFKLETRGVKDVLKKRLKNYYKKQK

Variants of: B1
Assay: abundance fitness (aPCA) (normalised: wild type 0, dead -1); higher = more abundant; growth selection in yeast, the domain comes from the species named
Settings: Homo sapiens
MEASURED ENDPOINT: abundance fitness
Hey, just send me the number, nothing else.

# input variant: `G33E` ; wanted: its abundance fitness -0.791

# input variant: `M15H` ; wanted: its abundance fitness -0.873

# input variant: `C11L` ; wanted: its abundance fitness -0.053

# input variant: `K17C` ; wanted: its abundance fitness -0.113

# input variant: `I12S` ; wanted: its abundance fitness -0.769

# input variant: `M15C` ; wanted: its abundance fitness -0.826

# input variant: `V37G` ; wanted: its abundance fitness -0.639

# input variant: `L20S` ; wanted: its abundance fitness -0.479

# input variant: `C11N` ; wanted: its abundance fitness -0.04

# input variant: `R14E` ; wanted: its abundance fitness -0.359

# input variant: `V34I` ; wanted: its abundance fitness -0.064

# input variant: `E18L` ; wanted: its abundance fitness -0.025

# input variant: `Y2M` ; wanted: its abundance fitness 0.012

# input variant: `T8G` ; wanted: its abundance fitness -0.215

# input variant: `I12Y` ; wanted: its abundance fitness -0.699

# input variant: `I12L` ; wanted: its abundance fitness -0.389

# input variant: `V37R` ; wanted: its abundance fitness -0.124

# input variant: `K17V` ; wanted: its abundance fitness -0.152

# input variant: `V37D` ; wanted: its abundance fitness -0.25

# input variant: `R32K` ; wanted: its abundance fitness -0.209

# input variant: `M15L` ; wanted: its abundance fitness -0.317

# input variant: `L38I` ; wanted: its abundance fitness -0.541

# input variant: `V37K` ; wanted: its abundance fitness 0.027

# input variant: `R32E` ; wanted: its abundance fitness -0.572

# input variant: `I12C` ; wanted: its abundance fitness -0.721

# input variant: `I5V` ; wanted: its abundance fitness -0.037

# input variant: `R21I` ; wanted: its abundance fitness -0.226

# input variant: `R14F` ; wanted: its abundance fitness -0.881

# input variant: `K40T` ; wanted: its abundance fitness -0.398

# input variant: `E26S` ; wanted: its abundance fitness -0.185

# input variant: `E26R` ; wanted: its abundance fitness -0.472

# input variant: `I7S` ; wanted: its abundance fitness -0.142

# input variant: `M15A` ; wanted: its abundance fitness -0.678

# input variant: `G33S` ; wanted: its abundance fitness -0.787

# input variant: `R32I` ; wanted: its abundance fitness -0.628

# input variant: `F27D` ; wanted: its abundance fitness -0.652

# input variant: `D36G` ; wanted: its abundance fitness -0.244

# input variant: `R14S` ; wanted: its abundance fitness -0.129

# input variant: `K39Q` ; wanted: its abundance fitness -0.398

Cited source: the Human Domainome abundance scans (Beltran et al. 2025)
